Biological target: Delta-type opioid receptor (Homo sapiens, UniProt P41143)
Sequence (P41143 whole entry): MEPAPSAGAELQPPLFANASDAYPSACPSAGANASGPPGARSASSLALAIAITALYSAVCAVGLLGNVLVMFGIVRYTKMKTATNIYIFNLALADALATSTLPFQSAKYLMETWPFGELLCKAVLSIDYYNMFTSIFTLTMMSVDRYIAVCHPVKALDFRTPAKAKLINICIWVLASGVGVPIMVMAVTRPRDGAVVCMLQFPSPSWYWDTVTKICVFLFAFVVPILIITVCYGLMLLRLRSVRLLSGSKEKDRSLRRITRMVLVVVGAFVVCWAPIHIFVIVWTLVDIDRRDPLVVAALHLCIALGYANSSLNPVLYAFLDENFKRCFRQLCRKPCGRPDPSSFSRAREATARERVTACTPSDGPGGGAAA
Assay: Agonistic activity against human opioid Delta receptor transfected into Chinese hamster ovary (CHO) cells using [3H]Cl-DPDPE as radioligand
Assay type: functional, cell-based
Recorded metric: Stimulation (%)
Give bare numbers, in %.

Dear reader, for each entry below, please note its Stimulation.
1. CN1CCC23c4c5ccc(O)c4OC2c2nc(-c4ccccc4)ncc2CC3(O)C1C5 (centres undefined)
2. CN1CCC23c4c5ccc(O)c4OC2c2nc(O)ncc2CC3(O)C1C5 (centres undefined)
3. Cc1ncc2c(n1)C1Oc3c(O)ccc4c3C13CCN(C)C(C4)C3(O)C2 (centres undefined)
4. CN1CCC23c4c5ccc(O)c4OC2c2n[nH]cc2CC3(O)C1C5 (centres undefined)

92.5
97
60
75.2

* * *

Molecular target: Delta-type opioid receptor (Homo sapiens, UniProt P41143)
Assay: Binding affinity towards human opioid Delta receptor transfected into Chinese hamster ovary (CHO) cells using [3H]Cl-DPDPE as radioligand.
I'd be grateful if you could share measured pKi for these entries.
Give bare numbers, as −log10 of the molar value.

Some compounds with known pKi results, for comparison:
What does the record list as pKi for CN1CCC23c4c5ccc(O)c4OC2c2nc(-c4ccccc4)ncc2CC3(O)C1C5 (stereo not given) ?
8.19

What does the record list as pKi for CN1CCC23c4c5ccc(O)c4OC2c2[nH]c(=O)ncc2CC3(O)C1C5 (stereo not given) ?
7.72

What does the record list as pKi for CN1CCC23c4c5ccc(O)c4OC2c2n[nH]cc2CC3(O)C1C5 (stereo not given) ?
7.91

What does the record list as pKi for Cc1ncc2c(n1)C1Oc3c(O)ccc4c3C13CCN(C)C(C4)C3(O)C2 (stereo not given) ?
7.62

Switching to the query record.
What does the record list as pKi for CN1CCC23c4c5ccc(O)c4OC2c2nc(N)ncc2CC3(O)C1C5 (stereo not given) ?
7.72

* * *

Target: UniProt:P35372
Sequence (P35372 whole entry): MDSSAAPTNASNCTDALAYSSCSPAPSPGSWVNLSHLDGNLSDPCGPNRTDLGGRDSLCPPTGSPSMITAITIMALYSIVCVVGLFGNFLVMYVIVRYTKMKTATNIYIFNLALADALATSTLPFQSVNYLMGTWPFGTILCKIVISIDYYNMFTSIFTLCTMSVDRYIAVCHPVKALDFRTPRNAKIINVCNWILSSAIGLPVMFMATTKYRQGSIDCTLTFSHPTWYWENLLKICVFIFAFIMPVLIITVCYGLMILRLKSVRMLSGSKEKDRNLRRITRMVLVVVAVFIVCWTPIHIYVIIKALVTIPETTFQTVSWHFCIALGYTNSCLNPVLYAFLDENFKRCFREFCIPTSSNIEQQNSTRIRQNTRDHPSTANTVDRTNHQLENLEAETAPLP
Assay: Agonistic activity against human opioid Mu receptor transfected into Chinese hamster ovary (CHO) cells using [3H]DAMGO as radioligand
Type: functional, cell-based
Recorded metric: Stimulation

Some compounds with known Stimulation results, for comparison:
What does the record list as Stimulation for Cc1ncc2c(n1)C1Oc3c(O)ccc4c3C13CCN(C)C(C4)C3(O)C2 (centres undefined) ?
109%

What does the record list as Stimulation for CN1CCC23c4c5ccc(O)c4OC2c2nc(O)ncc2CC3(O)C1C5 (centres undefined) ?
87.7%

What does the record list as Stimulation for CN1CCC23c4c5ccc(O)c4OC2c2n[nH]cc2CC3(O)C1C5 (centres undefined) ?
80.3%

Switching to the query record.
What does the record list as Stimulation for CN1CCC23c4c5ccc(O)c4OC2c2nc(-c4ccccc4)ncc2CC3(O)C1C5 (centres undefined) ?
89.4%

* * *

I'd be grateful if you could share measured EC50 for these entries.
Molecular target: Kappa-type opioid receptor (Homo sapiens)
Sequence (P41145 whole entry): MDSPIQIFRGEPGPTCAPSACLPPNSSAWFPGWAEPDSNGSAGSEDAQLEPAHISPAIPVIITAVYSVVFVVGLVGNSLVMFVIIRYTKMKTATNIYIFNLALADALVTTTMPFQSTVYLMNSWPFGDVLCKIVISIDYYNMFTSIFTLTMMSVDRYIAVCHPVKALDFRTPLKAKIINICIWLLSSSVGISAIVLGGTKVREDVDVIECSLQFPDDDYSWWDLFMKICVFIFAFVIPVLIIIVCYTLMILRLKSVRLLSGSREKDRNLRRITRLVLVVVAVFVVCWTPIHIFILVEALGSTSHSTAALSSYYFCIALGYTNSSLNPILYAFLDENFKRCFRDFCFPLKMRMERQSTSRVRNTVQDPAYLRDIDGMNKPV
Test: Agonistic activity against human opioid Kappa receptor transfected into Chinese hamster ovary (CHO) cells using [3H]U-69593 as radioligand
Numbers only, in nM.

Some molecules with known EC50 results, for comparison:
Any idea what EC50 came out for Cc1ncc2c(n1)C1Oc3c(O)ccc4c3C13CCN(C)C(C4)C3(O)C2 (centres undefined) on Kappa-type opioid receptor (Homo sapiens)?
2730

Any idea what EC50 came out for CN1CCC23c4c5ccc(O)c4OC2c2nc(-c4ccccc4)ncc2CC3(O)C1C5 (centres undefined) on Kappa-type opioid receptor (Homo sapiens)?
1420

Dear reader, for each entry below, please note its EC50.
1. CN1CCC23c4c5ccc(O)c4OC2c2[nH]c(=O)ncc2CC3(O)C1C5 (centres undefined)
2. CN1CCC23c4c5ccc(O)c4OC2c2nc(N)ncc2CC3(O)C1C5 (centres undefined)

[1020, 1080]

Each recorded value in this set is attributed to ChEMBL document CHEMBL1131901.
